method-notes: Highest frequency of moderate liver toxicity observed during clinical trials, expressed as a percentage. [column '% BIOL' in source]
conditions: human
reported-endpoint: Hepatotoxicity (moderate) (%)

>>> result("CC(CCC(=O)O)C1CC[C@H]2[C@@H]3CC[C@@H]4C[C@H](O)CC[C@]4(C)[C@H]3CC[C@]12C (stereo partly drawn)")
11.1
>>> result("CC(=O)Oc1ccc(C(=C2CCCCC2)c2ccc(OC(C)=O)cc2)cc1")
55.6
>>> result("COC(=O)C1=C(C)NC(C)=C(C(=O)OCCN(C)Cc2ccccc2)C1c1cccc([N+](=O)[O-])c1 (stereo not drawn)")
6.7

---

method-notes: Proposed mechanism(s) of liver damage. [column 'MEC' in source]
conditions: human
reported-endpoint: Hepatotoxicity (mechanism)

>>> result("O=C(O)c1cccs1")
"Allergic"
>>> result("Cc1cnc(NC(=O)C2=C(O)c3ccccc3S(=O)(=O)N2C)s1")
"Dose-dependant"
>>> result("Cc1nnc2n1-c1ccc(Cl)cc1C(c1ccccc1)=NC2")
"Dose-dependant"
>>> result("Cc1oncc1C(=O)Nc1ccc(C(F)(F)F)cc1 [LEFLUNOMIDE]")
"Dose-dependant"
>>> result("CN(C)CCC=C1c2ccccc2COc2ccccc21 [DOXEPIN]")
"Allergic"
